The origin of these recorded values is patent US20150250769A1.

Tested on: Rho (MRTF/SRF-regulated gene transcription, SRE-Luciferase)
Experimental Details: SRE-Luciferase reporter, Rho inhibition
Format: cell-based
pIC50: −log10 of the molar value.
Result Type: pIC50

Which pIC50 is reported with Rho (MRTF/SRF-regulated gene transcription, SRE-Luciferase) for this entry: O=C(O)CCSc1nc(-c2ccccc2)cc(=O)[nH]1 ?
< 4.00

Write down the reported pIC50 of COC(=O)CSc1nnc(-c2ccc(C)cc2)o1 , test system: Rho (MRTF/SRF-regulated gene transcription, SRE-Luciferase).
5.28

Rho (MRTF/SRF-regulated gene transcription, SRE-Luciferase) / pIC50 / COc1ccc(-c2nnc(SCCC(=O)O)n2C)cc1 : value?
< 4.00

Find the measured pIC50: item O=C(O)CSc1nnc(-c2ccc(Cl)cc2Cl)o1 , target or system Rho (MRTF/SRF-regulated gene transcription, SRE-Luciferase).
< 4.00

State its pIC50 on Rho (MRTF/SRF-regulated gene transcription, SRE-Luciferase): COCCNC(=O)CCSc1nnc(-c2ccc(Cl)cc2Cl)o1
< 4.00
